meta.source: PubChem BioAssay AID328

Test system: BDF1 mice, P388 leukemia ip, median survival T/C
Test: NCI In Vivo Anticancer Drug Screen. Data for tumor model P388 Leukemia (intraperitoneal) in B6D2F1 (BDF1) mice
Measurement Setup: endpoint: median survival time; dose: 300.0 mg/kg/injection; schedule: Q01DX009 (ip); vehicle: saline with Tween-80
Toxic doses and inconclusive results are not listed. How the source made its calls: active means survival T/C of 150% or more; inactive means T/C below 125% in these data.
Lab note: assign the record to one of Yes (active), No (inactive)

Q: Which outcome was assigned to CC1CN1P(=S)(Oc1ccccc1)N1CC1C (stereo not drawn) in this test?
A: Yes

Q: Per the assay record, what outcome was assigned to Cc1cccc(NC=O)c1 ?
A: No

Q: Lab log entry: Cc1ccn(C(=O)CC#N)n1 — outcome as called in the assay?
A: No

Q: Entry C/C(=N\NC(=O)CC(=O)N/N=C(\C)c1ccncc1)c1ccncc1 : call = ?
A: No

Q: Returns: the outcome recorded for COc1cc(Cl)ccc1C in this assay.
A: No

Q: Identify the outcome logged in this assay for the molecule shown: CCNC(=S)N/N=C\C=N/NC(=S)NCC
A: No

Q: Please let me know the test result on file for CC1(C)SC(=S)N(c2ccc([N+](=O)[O-])cc2)C1=O .
A: No

Q: Record lookup: outcome of this test for CCCCCCC(=O)/C=C/c1ccc(Cl)c(Cl)c1 ?
A: No

---

System: BDF1 mice, P388 leukemia ip, median survival T/C
Test: NCI In Vivo Anticancer Drug Screen. Data for tumor model P388 Leukemia (intraperitoneal) in B6D2F1 (BDF1) mice
Measurement Setup: endpoint: median survival time; dose: 50.0 mg/kg/injection; schedule: Q04DX003 (ip); vehicle: saline sonified; higher = longer survival
Inconclusive results and toxic doses are left out.
Endpoint Label: T/C

Q: Which T/C reading was recorded for the molecule C=CCn1c2ccccc2c2cc3cnccc3c(C)c21 ?
A: 95 % of control

Q: Recorded T/C of COc1cc(C=Nc2cccc(F)c2)ccc1N(CCCl)CCCl , please.
A: 100 % of control

Q: Request the reported T/C associated with Nc1nc(N)nc(CCP(CCc2nc(N)nc(N)n2)CCc2nc(N)nc(N)n2)n1
A: 100 % of control

Q: Quick one: T/C of O=C(Nc1cc(C(F)(F)F)cc(C(F)(F)F)c1)Nc1c(Oc2ccc(Cl)cc2Cl)ccc(Cl)c1S(=O)(=O)O ?
A: 87 % of control

Q: T/C lookup needed for O=C(/C=N/O)c1cccnc1 , thanks.
A: 95 % of control

Q: # lookup: T/C of CCC(CC)N(C)C(C)(C)CO
A: 104 % of control

---

Test system: BDF1 mice, P388 leukemia ip, median survival T/C
Test: NCI In Vivo Anticancer Drug Screen. Data for tumor model P388 Leukemia (intraperitoneal) in B6D2F1 (BDF1) mice
Measurement Setup: endpoint: median survival time; dose: 6.25 mg/kg/injection; schedule: Q01DX009 (ip); vehicle: Klucel (hydroxypropylcellulose) (HPC)
Experimental: The antitumor activity of compounds was measured in mice bearing transplantable tumors. Survival or tumor size were measured and the results are expressed as the measurement made in the treated group (T) divided by the measurement made in the vehicle treated control group (C). The tumor model used in this assay is P388 Leukemia (intraperitoneal) in B6D2F1 (BDF1) mice
Inconclusive results and toxic doses are left out. Rule for the calls: active = survival T/C of 150% or more; inactive = T/C below 125% in these data.
Thanks in advance; please answer with one of these: Y = active, N = inactive

Q: Could you please tell me the result logged for C[C@@H]1C[C@@]2(C)[C@@H](CC[C@@H]3[C@@H]2CC[C@]2(C)[C@@H](O)CC[C@@H]32)CC1=O in this assay?
A: N

Q: Which outcome was entered for the compound CCCCCCCCCCCCNCCCCCCCCCCCC in this test?
A: N

Q: Given COc1cc(OC)c2c[n+](C)c3c4cc(OC)c(OC)cc4ccc3c2c1 , state the outcome it received in this test.
A: Y

Q: # lookup: test call for COc1cc2oc(-c3ccc(O)cc3O)c(CC=C(C)C)c(=O)c2c(O)c1/C=C/C(C)C
A: N

Q: Recorded call for Nc1nc(N)c2cc(NCc3ccc(Br)cc3)ccc2n1 ?
A: N

Q: Please share the test call associated with O=[N+]([O-])c1ccc(N=Nc2c(Cl)cc(O)cc2Cl)cc1 .
A: N
